Tested on: NMC-G1;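 further: growth inhibition of the NMC-G1 cell line, measured with a cell viability read-out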
assay_name: cells
Type: functional, cell-based
run_parameters: Homo sapiens
Description: SANGER: Inhibition of human NMC-G1 cell growth in a cell viability assay.
value_kind: pIC50
Answers are plain numbers, as −log10 of the molar value.

// known answers, use as guide
| item_smiles | endpoint_result |
| --- | --- |
| Cc1nc(Nc2ncc(C(=O)Nc3c(C)cccc3Cl)s2)cc(N2CCN(CCO)CC2)n1 | 6.94 |
| CC[C@]1(O)C[C@@H]2CN(CCc3c([nH]c4ccccc34)[C@@](C(=O)OC)(c3cc4c(cc3OC)N(C)[C@H]3[C@@](O)(C(=O)OC)[C@H](OC(C)=O)[C@]5(CC)C=CCN6CC[C@]43[C@@H]65)C2)C1 | 8.07 |

Please look at the following compound next.
Inquiry: So what pIC50 did `C/C=C(/C)C(=O)O[C@H]1C(C)=C2[C@H]([C@@H]1OC(=O)CCCCCCC)[C@@](C)(OC(C)=O)C[C@H](OC(=O)CCC)[C@@]1(O)[C@H]2OC(=O)[C@@]1(C)O` get with NMC-G1?
Reply text: 7.67

Hey, just so you know, these numbers are from ChEMBL document CHEMBL1201861.
